I'd be grateful if you could share measured pIC50 for these entries.
Entry type: numeric. Quantity: pIC50, the -log10 of concentration in molar units.

# get_value(readout= pIC50, system= Genome polyprotein (West Nile virus)) for O=C(NCC1CCNCC1)c1cc2ccc(-c3ccc(Oc4ccccc4)cc3)cc2[nH]1
5.18

# get_value(readout= pIC50, system= Genome polyprotein (West Nile virus)) for O=C(NCC1CCNCC1)c1c[nH]c2nc(-c3ccc(CN4CCCCC4)cc3)ccc12
5.07

# get_value(readout= pIC50, system= Genome polyprotein (West Nile virus)) for O=C(NC1CCNCC1)c1c[nH]c2cc(-c3ccncc3)ccc12
4.98

# get_value(readout= pIC50, system= Genome polyprotein (West Nile virus)) for O=C(NCC1CCNCC1)c1c[nH]c2cc(-c3ccc(CN4CCCCC4)cc3)ccc12
4.49

---

STUDY_SYSTEM: Genome polyprotein (West Nile virus, UniProt P06935)
Sequence (P06935 1371-1501 limits assumed): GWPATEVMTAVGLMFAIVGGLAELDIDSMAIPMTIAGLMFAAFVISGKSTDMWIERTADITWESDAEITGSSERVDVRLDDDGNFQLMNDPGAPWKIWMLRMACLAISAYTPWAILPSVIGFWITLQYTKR
Sequence (P06935 1502-2120 limits assumed): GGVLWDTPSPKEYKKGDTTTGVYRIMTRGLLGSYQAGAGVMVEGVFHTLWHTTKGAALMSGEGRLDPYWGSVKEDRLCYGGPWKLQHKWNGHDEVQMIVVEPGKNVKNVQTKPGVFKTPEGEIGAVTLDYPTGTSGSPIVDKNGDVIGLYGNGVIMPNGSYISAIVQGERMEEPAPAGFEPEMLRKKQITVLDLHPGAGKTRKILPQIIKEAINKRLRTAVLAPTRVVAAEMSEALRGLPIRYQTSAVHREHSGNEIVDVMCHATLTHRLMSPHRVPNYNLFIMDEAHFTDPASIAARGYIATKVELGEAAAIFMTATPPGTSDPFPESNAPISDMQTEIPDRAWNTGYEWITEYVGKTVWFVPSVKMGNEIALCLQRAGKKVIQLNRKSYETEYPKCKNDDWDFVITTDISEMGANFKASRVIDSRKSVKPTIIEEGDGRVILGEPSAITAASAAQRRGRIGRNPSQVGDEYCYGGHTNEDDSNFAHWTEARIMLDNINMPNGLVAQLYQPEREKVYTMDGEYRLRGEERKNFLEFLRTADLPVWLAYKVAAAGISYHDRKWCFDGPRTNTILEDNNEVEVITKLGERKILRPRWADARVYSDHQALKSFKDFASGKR
TEST_SUMMARY: Inhibition of West Nile virus NS2B (49 to 96 residues)/NS3 (2 to 184 residues) protease expressed in Escherichia coli BL21 using Bz-Nle-Lys-Lys-Arg-AMC as substrate preincubated for 10 mins by fluorescence-based biochemical assay
API: label(entry) gives True if the entry's IC50 is strictly smaller than 20 µM; on equality or larger values it gives False.

For this compound, is IC50 lower than 20 µM? O=C(NCC1CCNCC1)c1cc2ccc(-c3ccoc3)cc2[nH]1
True

For this compound, is IC50 lower than 20 µM? O=C(NCC1CCNCC1)c1c[nH]c2cc(-c3cn[nH]c3)ccc12
False

For this compound, is IC50 lower than 20 µM? Cc1ccc(-c2ccc3c(C(=O)NCC4CCNCC4)c[nH]c3c2)cc1
False

For this compound, is IC50 lower than 20 µM? O=C(NCC1CCNCC1)c1c[nH]c2cc(-c3ccoc3)c(-c3ccoc3)cc12
True

For this compound, is IC50 lower than 20 µM? CC(C)(C)c1ccc(-c2ccc3c(C(=O)NCC4CCNCC4)c[nH]c3c2)cc1
False

For this compound, is IC50 lower than 20 µM? O=C(NCC1CCNCC1)c1cc2cc(-c3ccc(N4CCCCC4)cc3)ccc2[nH]1
False

For this compound, is IC50 lower than 20 µM? O=C(NCC1CCNCC1)c1cc2ccc(-c3ccc(OC(F)(F)F)cc3)cc2[nH]1
True

For this compound, is IC50 lower than 20 µM? N#Cc1ccc(-c2ccc3c(C(=O)NCC4CCNCC4)c[nH]c3c2)cc1
False

For this compound, is IC50 lower than 20 µM? O=C(NCC1CCNCC1)c1cc2ccc(-c3cn[nH]c3)cc2[nH]1
True

For this compound, is IC50 lower than 20 µM? CC(C)(C)c1ccc(-c2ccc3cc(C(=O)NCC4CCNCC4)[nH]c3c2)cc1
False

---

PROPERTY: IC50 (µM)
Your answer should be a plain number; it is taken to be in µM.

# get_value(readout= IC50, system= Genome polyprotein (dengue virus type 2, UniProt P29990)) for O=C(NCC1CCNCC1)c1cc2ccc(-c3ccc(OC(F)(F)F)cc3)cc2[nH]1
10.7

# get_value(readout= IC50, system= Genome polyprotein (dengue virus type 2, UniProt P29990)) for O=C(NC1CCNCC1)c1c[nH]c2cc(-c3ccncc3)ccc12
10

# get_value(readout= IC50, system= Genome polyprotein (dengue virus type 2, UniProt P29990)) for O=C(NCC1CCNCC1)c1c[nH]c2cc(-c3ccc(CN4CCCCC4)cc3)ccc12
49.7

# get_value(readout= IC50, system= Genome polyprotein (dengue virus type 2, UniProt P29990)) for O=C(NCC1CCNCC1)c1cc2ccc(-c3ccoc3)cc2[nH]1
1.6

# get_value(readout= IC50, system= Genome polyprotein (dengue virus type 2, UniProt P29990)) for O=C(NCC1CCNCC1)c1cc2ccc(-c3ccc(Oc4ccccc4)cc3)cc2[nH]1
6.5

# get_value(readout= IC50, system= Genome polyprotein (dengue virus type 2, UniProt P29990)) for O=C(NCC1CCNCC1)c1cc2cc(-c3ccc(N4CCCCC4)cc3)ccc2[nH]1
40.2

# get_value(readout= IC50, system= Genome polyprotein (dengue virus type 2, UniProt P29990)) for O=C(NCC1CCNCC1)c1c[nH]c2nc(-c3ccc(CN4CCCCC4)cc3)ccc12
9.2

# get_value(readout= IC50, system= Genome polyprotein (dengue virus type 2, UniProt P29990)) for CC(C)(C)c1ccc(-c2ccc3c(C(=O)NCC4CCNCC4)c[nH]c3c2)cc1
30.4

# get_value(readout= IC50, system= Genome polyprotein (dengue virus type 2, UniProt P29990)) for O=C(NCC1CCNCC1)c1c[nH]c2cc(-c3cn[nH]c3)ccc12
48.3

# get_value(readout= IC50, system= Genome polyprotein (dengue virus type 2, UniProt P29990)) for COc1ccc(-c2ccc3cc(C(=O)NCC4CCNCC4)[nH]c3c2)cc1
10.6

# get_value(readout= IC50, system= Genome polyprotein (dengue virus type 2, UniProt P29990)) for O=C(NCC1CCNCC1)c1c[nH]c2cc(-c3ccoc3)c(-c3ccoc3)cc12
3.1

# get_value(readout= IC50, system= Genome polyprotein (dengue virus type 2, UniProt P29990)) for O=C(NCC1CCNCC1)c1cc2ccc(-c3cn[nH]c3)cc2[nH]1
10.3

# get_value(readout= IC50, system= Genome polyprotein (dengue virus type 2, UniProt P29990)) for CC(C)(C)c1ccc(-c2ccc3cc(C(=O)NCC4CCNCC4)[nH]c3c2)cc1
15

# get_value(readout= IC50, system= Genome polyprotein (dengue virus type 2, UniProt P29990)) for N#Cc1ccc(-c2ccc3c(C(=O)NCC4CCNCC4)c[nH]c3c2)cc1
12

Hello, the source for this data is ChEMBL document CHEMBL4842369, in case you need it.
